Taken from patent US20250340659A1.

Biological target: T1, recombinant canine OX40L ECD-TNCc-HIS protein (canine)
T1 construct: also called Trimeric OX40L probe (HIS tag); trimeric canine OX40L
T1 chain: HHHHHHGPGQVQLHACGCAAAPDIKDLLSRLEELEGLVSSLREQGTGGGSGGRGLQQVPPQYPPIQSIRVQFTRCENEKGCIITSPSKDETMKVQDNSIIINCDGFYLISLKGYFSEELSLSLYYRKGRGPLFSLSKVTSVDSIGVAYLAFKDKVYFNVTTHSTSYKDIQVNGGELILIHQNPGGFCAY
Assay: SPR Koff (kd2)
# key: entry, value: koff
Quantity Measured: koff (s⁻¹)

Binder | Numeric Value
PMX034 (antibody, V domains shown, also called PMX34) VH: EVQLVESGGDLVKPGGSLRLSCVASGFTFSNYHMSWVRQAPGKGLQWVAYIVSGGSSTTYADAVKGRFTISRDNAKNTLYLQMTSLRAEDTAVYYCASDLVLLVGGADYWGQGTLVTVSS VL: SYELTQPPSVNVTLRETAHITCGGDSIGSKYVQWIQQNPGQAPVVIIYKDSNRPTGIPERFSGANSGNTATLTISGALAEDEADYYCQVGDSGTKAVFGGGTHLTVL | 0.000252
PMX049 (antibody, V domains shown, also called PMX49) VH: EVQLVESGGDLVKPGGSLRLSCVASGFTFNNYEMYWVRQAPGKGLEWVARIYESGSTTFSAEAVTGRFTISRDNAKNMVYLQMNSLRAEDTAVYYCASASSSSWRFDYWGQGTLVTVSS VL: SYVLTQLPSVSVTLGQTARITCGGDSIGRKNVCWFQQRLGQAPELIIYDDRSRPSGIPERFSGANSGNTATLTISGALAEDEADYYCQVWDSSTGVFGGGTHLTVL | 22
PMX060 (antibody, V domains shown, also called PMX60) VH: EVQLVESGGDLMKPGGSLRLSCVASGFTFSSFPMSWVRQAPGKGLQWVAYIHSGGSSTSYADAVKGRFTISRDNAKNTLYLQMNSLRAEDTAIYYCARTFPTVAADNWFYYWGQGTLVTVSS VL: SYVLTQLPSKNVTLKQAAHITCGGDNIGSKSVHWYQQKLGQAPVLIIYYDSSRPTGIPERFSGANSGNTATLTISGALAEDEADYYCQVWDSSAKWVFGEGTQLTVL | 0.000925
PMX155 (antibody, V domains shown) VH: ELHLVESGGDLVKPAGSLRLSCVASGFTFSSFRMSWVRQSPGKGLQFVAGINSDGYNTQYRDDVKGRFTISRDNTEKTLYLQMNNLRVEDTAMYYCVKDQGSWGGNFDFWGQGTLVTVSS VL: SYGLTQPPSVNVTLRETAHITCGGDSIGSKYVQWIQQIPGQAPVVIIYKDRNRPTGIPERFSGANSGNTATLTISGALAEDEADYYCQVGDSGTSVFGGGTHLTVL | 0.000294
PMX156 (antibody, V domains shown) VH: ELQLVESGGDLVKPAGSLRLSCVASGFTFSNFRMSWVRQAPGKGLQFVAGINSDGYSTQYRDDVKGRFTISRDNTEKTLYLQMNNLRVEDTAMYYCVKDQGSWGGNFDYWGQGTLVTVSS VL: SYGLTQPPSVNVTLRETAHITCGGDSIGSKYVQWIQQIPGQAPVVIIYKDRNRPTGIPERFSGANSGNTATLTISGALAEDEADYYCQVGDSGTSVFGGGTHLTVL | 0.000238
